Property: normalized growth; scope: individual compounds
Assay: chemical genetic growth profiling, strain panel (AID 1159580);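 also: tested at 20 µM; growth read once vehicle control cultures reached saturation at 30 °C; 1 = growth at the plate median or of vehicle wells; lower values mean less growth of the strain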
Conditions: S. cerevisiae deletion strains, growth OD, locus YJL154C, strain vps35, active compounds read low
In all, about 5,500 compounds went through this assay and about 2,000 (36%) were called active. Not shown: some 18% with an inconclusive outcome. The list shows a part of the results.
// return just the number, without any unit appended

Entry O=C(O)c1cc(O)c2c(c1)[C@@H]([C@H]1c3cc(C(=O)O)cc(O)c3C(=O)c3c(O[C@H]4O[C@H](CO)[C@@H](O)[C@H](O)[C@H]4O)cccc31)c1cccc(O[C@H]3O[C@H](CO)[C@@H](O)[C@H](O)[C@H]3O)c1C2=O ; normalized growth = 1.02

Entry CS(=O)(=O)Nc1ccc([N+](=O)[O-])cc1Oc1ccccc1 ; normalized growth = 0.992

Entry COC(=O)c1c(OC)cc2c(c1C)Oc1c(Cl)c(OC(C)=O)c(Cl)c(C)c1C(=O)O2 ; normalized growth = 0.972

Entry O=P1(NCCCl)OCCCN1CCCl (configuration not stated) ; normalized growth = 0.992

Entry CC(=O)O[C@@H]1CC2C(C)(C)C(=O)C=C[C@]2(C)C2CC[C@]3(C)C(=CC(=O)O[C@H]3c3ccoc3)[C@@]21C (some centres not stated) ; normalized growth = 1

Entry CC(CCC(=O)O)[C@H]1CCC2C3CC[C@@H]4C[C@H](O)CC[C@]4(C)C3C=C[C@@]21C (some centres not stated) ; normalized growth = 1.03

Entry C=C1C[C@]23C[C@@]1(O)CC[C@H]2[C@@]12C=C[C@H](O)[C@@](C)(C(=O)O1)[C@H]2[C@@H]3C(=O)O ; normalized growth = 1.03

Entry CNCCCC12CCC(c3ccccc31)c1ccccc12 ; normalized growth = 0.975

Entry CC1=CC(=O)c2ccccc2C1=O ; normalized growth = 1.03

Entry CN(C)[C@@H]1C(=O)C(C(N)=O)=C(O)[C@@]2(O)C(=O)C3=C(O)c4c(O)ccc(Cl)c4[C@@](C)(O)[C@H]3C[C@@H]12 ; normalized growth = 0.973

Entry COc1ccc2cc(CCC(C)=O)ccc2c1 ; normalized growth = 0.992

Entry CC1=CCCC2C1(C)CCC(C)C2(C)CC/C(C)=C/C[n+]1cn(C)c2c(N)ncnc21 (configuration not stated) ; normalized growth = 0.983

Entry CC(C)(C)NC[C@H](O)c1ccc(O)c(CO)c1 ; normalized growth = 1.02

Entry CC(=O)O[C@@H]1CC2C(C)(C)[C@H](O)C=C[C@]2(C)C2CC[C@]3(C)C(=CC(=O)O[C@H]3c3ccoc3)[C@@]21C (some centres not stated) ; normalized growth = 0.981

Entry CC(C)C[C@@H](CN)CC(=O)O ; normalized growth = 1.02

Entry C=C1c2c(Cl)ccc(O)c2C(O)=C2C(=O)[C@]3(O)C(O)=C(C(N)=O)C(=O)[C@@H](N(C)C)[C@@H]3[C@@H](O)[C@H]12 ; normalized growth = 0.985

Entry C[C@H]1c2cccc(O)c2C(O)=C2C(=O)[C@]3(O)C(O)=C(C(N)=O)C(=O)[C@@H](N(C)C)[C@@H]3[C@@H](O)[C@@H]21 ; normalized growth = 0.983

---

Assay: chemical genetic growth profiling, strain panel (AID 1159580);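 also: tested at 20 µM; growth read once vehicle control cultures reached saturation at 30 °C; 1 = growth at the plate median or of vehicle wells; lower values mean less growth of the strain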
Conditions: S. cerevisiae deletion strains, growth OD, locus YHR013C, strain ard1, active compounds read low
Among all 5,500 compounds or so, about 2,000 (36%) were called active. Another 18% or so got no clear call; they are omitted. Some of the results follow.
Mark 1 only when normalized growth stays strictly below 1. Values equal to the cut-off are -1.

>  <MOLECULE>
CC(C)=CCCC(C)[C@@H]1CC[C@]2(C)C3=C(CC[C@@]12C)C1(C)CC[C@H](O)C(C)(C)C1CC3 (stereo partly drawn)

>  <CLASSIFICATION>
-1

$$$$
>  <MOLECULE>
Oc1c(Cl)cc(Cl)cc1Sc1cc(Cl)cc(Cl)c1O

>  <CLASSIFICATION>
1

$$$$

Next:
Please determine if CC(=O)O[C@H]1CCC2(C)C3=C(CCC2C1(C)C)[C@@]1(C)CC[C@@H](C(C)CCC=C(C)C)[C@]1(C)CC3 (stereo partly drawn) is below 1 in terms of normalized growth.
-1
